- ASSAY EXPLANATION: Clearance of 99m-Tc-IMP-192 in BALB/c mice
- Type: in vivo
- CONDITION PARAMETERS: BALB/c, mouse, small intestine, total radioactivity; Small int, 4 h
Where a SMILES comes first, the peptide text is derived from it. Side-chain parts run from the residue outwards. The star is where a group is joined. DTPA = O=C(O)CN(CCN(CC(=O)O)CC(=O)O)CCN(CC(=O)O)CC(=O)*; X1 = NC(=S)NN=CC(=O)*
MEASURED PARAMETER: tissue uptake at 4 h (%ID/g)

CC(=O)N[C@@H](CCCCNC(=O)CN(CCN(CCN(CC(=O)O)CC(=O)O)CC(=O)O)CC(=O)O)C(=O)N[C@@H](Cc1ccc(O)cc1)C(=O)N[C@@H](CCCCNC(=O)CN(CCN(CCN(CC(=O)O)CC(=O)O)CC(=O)O)CC(=O)O)C(=O)N[C@@H](CCCCNC(=O)[C@H](CS)NC(=O)C=NNC(N)=S)C(N)=O [IMP 192] (Ac-K(DTPA)YK(DTPA)K([Cys-X1])-NH2)	0.21

====

- ASSAY EXPLANATION: Pretargeting: 125-I-hMN-14 × 734 bsAb, 24 h later 99m-Tc-IMP-192, biodistribution
- Assay type: in vivo, Nude mice
- CONDITION PARAMETERS: female, NCRNU nude, mouse, total radioactivity; Tumor, 1 h post peptide
Where a SMILES comes first, the peptide text is derived from it. Side-chain parts run from the residue outwards. The star is where a group is joined. DTPA = O=C(O)CN(CCN(CC(=O)O)CC(=O)O)CCN(CC(=O)O)CC(=O)*; X1 = NC(=S)NN=CC(=O)*
MEASURED PARAMETER: tissue uptake at 1 h (%ID/g)

CC(=O)N[C@@H](CCCCNC(=O)CN(CCN(CCN(CC(=O)O)CC(=O)O)CC(=O)O)CC(=O)O)C(=O)N[C@@H](Cc1ccc(O)cc1)C(=O)N[C@@H](CCCCNC(=O)CN(CCN(CCN(CC(=O)O)CC(=O)O)CC(=O)O)CC(=O)O)C(=O)N[C@@H](CCCCNC(=O)[C@H](CS)NC(=O)C=NNC(N)=S)C(N)=O [IMP 192] (Ac-K(DTPA)YK(DTPA)K([Cys-X1])-NH2)	14.3

====

- ASSAY EXPLANATION: Pretargeting: 125-I-hMN-14 × 734 bsAb, 24 h later 99m-Tc-IMP-192, biodistribution
- Type: in vivo, Nude mice
- CONDITION PARAMETERS: female, NCRNU nude, mouse, total radioactivity; Tumor, 30 min post peptide
Where a SMILES comes first, the peptide text is derived from it. Side-chain parts run from the residue outwards. The star is where a group is joined. DTPA = O=C(O)CN(CCN(CC(=O)O)CC(=O)O)CCN(CC(=O)O)CC(=O)*; X1 = NC(=S)NN=CC(=O)*
MEASURED PARAMETER: tissue uptake at 0.5 h (%ID/g)

CC(=O)N[C@@H](CCCCNC(=O)CN(CCN(CCN(CC(=O)O)CC(=O)O)CC(=O)O)CC(=O)O)C(=O)N[C@@H](Cc1ccc(O)cc1)C(=O)N[C@@H](CCCCNC(=O)CN(CCN(CCN(CC(=O)O)CC(=O)O)CC(=O)O)CC(=O)O)C(=O)N[C@@H](CCCCNC(=O)[C@H](CS)NC(=O)C=NNC(N)=S)C(N)=O [IMP 192] (Ac-K(DTPA)YK(DTPA)K([Cys-X1])-NH2)	11.4
